The measured values listed here are drawn from paper PMC9491098.

- target.desc: MtDXPS (Mycobacterium tuberculosis, UniProt P9WNS3)
- Sequence (P9WNS3 whole entry, looked up): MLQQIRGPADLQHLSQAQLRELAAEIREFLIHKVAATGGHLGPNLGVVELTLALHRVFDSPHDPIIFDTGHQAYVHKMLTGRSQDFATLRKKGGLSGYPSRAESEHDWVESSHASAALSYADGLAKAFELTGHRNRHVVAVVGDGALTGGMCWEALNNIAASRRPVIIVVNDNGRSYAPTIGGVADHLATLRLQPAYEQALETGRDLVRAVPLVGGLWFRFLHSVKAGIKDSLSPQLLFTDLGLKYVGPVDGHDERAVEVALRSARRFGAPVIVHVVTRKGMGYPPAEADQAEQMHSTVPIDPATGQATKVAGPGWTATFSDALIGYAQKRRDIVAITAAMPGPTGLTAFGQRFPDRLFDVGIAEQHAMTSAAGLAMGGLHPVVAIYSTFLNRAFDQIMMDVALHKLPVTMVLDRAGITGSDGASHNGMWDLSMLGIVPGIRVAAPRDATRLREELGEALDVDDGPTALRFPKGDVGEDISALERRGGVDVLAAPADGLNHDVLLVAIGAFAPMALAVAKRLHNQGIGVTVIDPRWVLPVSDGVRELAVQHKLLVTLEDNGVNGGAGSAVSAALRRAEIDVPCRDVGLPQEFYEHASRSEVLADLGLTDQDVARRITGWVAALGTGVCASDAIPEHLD
- assay.notes: biochemical
- recorded.conditions: Table S2, second round of LBVS; MtDXPS; read-out: IC50
measured.parameter: IC50

• Cc1ccc(C)c2c1/C(=N/O)C(=O)N2Cc1ccccc1 = > 60 µM
• NC1=NC(c2ccccc2F)n2c(nc3ccccc32)N1 (centres unmarked) = > 120 µM
• COc1ccc(Cc2nc3ccccc3n2CC(O)CO)cc1 (centres unmarked) = > 2000 µM
• OCCc1nc2ccccc2n1Cc1ccc(Cl)cc1 = > 440 µM

Input line: Look at this molecule and give its reported IC50. CC(C)(C)C(O)/C(=N/O)n1cncn1 (centres unmarked)
Output line: > 200 µM

Input line: Param item: O/N=C/c1cccn1-c1ccc(Br)cc1
Output line: > 200 µM

Input line: Param item: CNc1ncc2c(n1)CN(CCc1ccccc1F)C2=O
Output line: > 340 µM

Input line: Param item: NC1=NC(c2ccc(O)c(O)c2)n2c(nc3ccccc32)N1 (centres unmarked)
Output line: > 160 µM
